- Study System: menin/MLL (terbium chelate-labeled menin, FITC-MBM1 peptide) (Homo sapiens, UniProt O00255, T541A)
- Construct: Menin (a.a 1-610-6xhis tag, 2.3 mg/mL in 20 mM Hepes)
- Sequence (O00255 with tags, fused parts or gaps T541A): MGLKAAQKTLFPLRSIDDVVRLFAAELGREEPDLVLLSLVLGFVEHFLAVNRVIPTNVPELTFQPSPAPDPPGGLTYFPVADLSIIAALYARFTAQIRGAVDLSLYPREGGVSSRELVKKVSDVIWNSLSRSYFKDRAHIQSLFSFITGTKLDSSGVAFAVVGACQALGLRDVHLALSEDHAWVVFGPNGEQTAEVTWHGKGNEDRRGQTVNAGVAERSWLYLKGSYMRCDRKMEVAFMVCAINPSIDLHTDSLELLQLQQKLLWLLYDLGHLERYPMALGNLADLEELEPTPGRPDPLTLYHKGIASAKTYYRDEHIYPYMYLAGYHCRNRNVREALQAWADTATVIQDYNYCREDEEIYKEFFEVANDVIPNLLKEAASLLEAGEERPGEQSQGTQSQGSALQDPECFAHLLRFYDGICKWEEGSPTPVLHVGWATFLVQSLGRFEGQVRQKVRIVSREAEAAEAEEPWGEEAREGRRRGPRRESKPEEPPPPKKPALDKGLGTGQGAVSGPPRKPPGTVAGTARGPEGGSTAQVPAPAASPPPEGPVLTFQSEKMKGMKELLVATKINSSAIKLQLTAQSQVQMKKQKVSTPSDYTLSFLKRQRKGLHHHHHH
- Test: Menin/MLL homogenous time-resolved fluorescence (HTRF) assay
- Condition Details: 30 min incubation
Entries and their IC50
Write the answer as a number in nM, unit excluded.

Please review the entries below; each comes with its answer.
Need IC50, item CN=S(=O)(c1cc(F)ccc1-n1cc(CC2CCN(CC3CCOCC3)C2)c2c(C)cncc21)C(C)C (single isomer, unassigned) [Compound 77c]
0.546

Another: COCC(=O)N1CC(CN2CCC(Cc3cn(-c4ccc(F)cc4C(=O)N(C)C(C)C)c4cncc(C)c34)CC2)C1 [Compound 111]
0.745

Another: CC(=O)N1CC[C@H](CN2CCC(Cc3cn(-c4ccc(F)cc4C(=O)N(C)C(C)C)c4cncc(C)c34)C2)C1 (single isomer, unassigned) [Compound 100]
0.165

---
Need IC50, item CC(=O)N[C@H]1CC[C@H](CN2CC(Cc3cn(-c4ccc(F)cc4C(=O)N(C)C(C)C)c4cncc(C)c34)C2)CC1 [Compound 118]
0.139

Another: Cc1cncc2c1c(CC1CN(C3CCCN(C)C(=O)C3)C1)cn2-c1ccc(F)cc1C(=O)N(C)C(C)C (stereo not shown) [Compound 291]
0.594

Another: Cc1cncc2c1c(C[C@H]1CCN(CC3CCCC(=O)N3)C1)cn2-c1ccc(F)cc1C(=O)N(C)C(C)C (mixture of isomers) [Compound 89]
0.183

Another: Cc1cncc2c1c(CC1CN([C@H](C)C3CCS(=O)(=O)CC3)C1)cn2-c1ccc(F)cc1C(=O)N(C)C(C)C (single isomer, unassigned) [Compound 213a]
0.567

Another: Cc1cncc2c1c(C[C@@H]1CCN(C[C@@H]3CCCCO3)C1)cn2-c1ccc(F)cc1C(=O)N(C)C(C)C (single isomer, unassigned) [Compound 147b]
0.073

Another: Cc1cncc2c1c(CC1CN(CC(=O)N3CCOCC3)C1)cn2-c1ccc(F)cc1C(=O)N(C)C(C)C [Compound 83]
1.3

Another: Cc1cncc2c1c(C[C@H]1CCN(CC3CCN(C(=O)C4(O)CC4)CC3)C1)cn2-c1ccc(F)cc1C(=O)N(C)C(C)C [Compound 245]
0.185

Another: Cc1cncc2c1c(CC1CN(CC3CCN(C(=O)OC(C)(C)C)CC3)C1)cn2-c1ccc(F)cc1C(=O)N(C)C(C)C [Compound 62]
0.085

Another: CNC(=O)[C@H]1CC[C@@H](CN2CC(Cc3cn(-c4ccc(F)cc4C(=O)N(C)C(C)C)c4cncc(C)c34)C2)CC1 [Compound 241]
0.084

Another: CN=S(=O)(c1cc(F)ccc1-n1cc(CC2CCN(CC3CCN(C(C)=O)CC3)C2)c2c(C)cncc21)C(C)C (stereo not shown) [Compound 128]
0.078

----------
- Study System: menin/MLL (terbium chelate-labeled menin, FITC-MBM1 peptide) (Homo sapiens, UniProt O00255, T541A)
- Construct: Menin (a.a 1-610-6xhis tag, 2.3 mg/mL in 20 mM Hepes)
- Sequence (O00255 with tags, fused parts or gaps T541A): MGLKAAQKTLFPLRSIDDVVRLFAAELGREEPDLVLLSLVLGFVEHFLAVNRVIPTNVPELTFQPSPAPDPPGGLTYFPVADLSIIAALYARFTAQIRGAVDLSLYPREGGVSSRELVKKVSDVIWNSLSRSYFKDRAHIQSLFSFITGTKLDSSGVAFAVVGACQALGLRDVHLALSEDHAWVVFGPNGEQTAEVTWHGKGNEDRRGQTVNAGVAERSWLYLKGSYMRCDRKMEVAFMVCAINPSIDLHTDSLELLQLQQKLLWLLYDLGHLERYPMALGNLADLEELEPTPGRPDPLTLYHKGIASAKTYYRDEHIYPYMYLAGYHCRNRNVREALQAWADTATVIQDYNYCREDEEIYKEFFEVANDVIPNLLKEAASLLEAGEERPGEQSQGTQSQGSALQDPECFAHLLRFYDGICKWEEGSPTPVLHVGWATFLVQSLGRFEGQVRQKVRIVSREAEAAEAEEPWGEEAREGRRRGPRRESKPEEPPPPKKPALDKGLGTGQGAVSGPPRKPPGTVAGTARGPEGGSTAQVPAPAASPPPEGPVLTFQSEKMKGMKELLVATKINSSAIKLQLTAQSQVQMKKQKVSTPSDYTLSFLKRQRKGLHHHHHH
- Test: Menin/MLL homogenous time-resolved fluorescence (HTRF) assay
- Condition Details: 30 min incubation
Property Measured: IC50 (nM)
Write the answer as a number in nM, unit excluded.

Please review the entries below; each comes with its answer.
Need IC50, item CC(=O)N1[C@@H](C)CC(N2CC(Cc3cn(-c4ccc(F)cc4C(=O)N(C)C(C)C)c4cncc(C)c34)C2)C[C@@H]1C (stereo partly drawn)
0.05

Another: Cc1cncc2c1c(C[C@@H]1CN[C@H](C)C1)cn2-c1ccc(F)cc1C(=O)N(C)C(C)C
23.9

Another: Cc1cncc2c1c(C[C@H]1CCN(CC(C)C)C1)cn2-c1ccc(F)cc1C(=O)N(C)C(C)C (single isomer, unassigned)
0.054

Another: CC(=O)NCC(C1CCN(C(C)=O)CC1)N1CC[C@@H](Cc2cn(-c3ccc(F)cc3C(=O)N(C)C(C)C)c3cncc(C)c23)C1 (mixture of isomers)
0.637

Another: COC(=O)[C@H]1CC[C@@H](CN2CC[C@@H](Cc3cn(-c4ccc(F)cc4C(=O)N(C)C(C)C)c4cncc(C)c34)C2)CC1
0.077

Next compound, IC50 to be filled in.
Need IC50, item CC(=O)N1CCC([C@H](C)N2CC(Cc3cn(-c4ccc(F)cc4C(=O)N(C)C(C)C)c4cncc(C)c34)C2)CC1 (single isomer, unassigned)
3.77

----------
- Study System: menin/MLL (terbium chelate-labeled menin, FITC-MBM1 peptide) (Homo sapiens, UniProt O00255, T541A)
- Construct: Menin (a.a 1-610-6xhis tag, 2.3 mg/mL in 20 mM Hepes)
- Sequence (O00255 with tags, fused parts or gaps T541A): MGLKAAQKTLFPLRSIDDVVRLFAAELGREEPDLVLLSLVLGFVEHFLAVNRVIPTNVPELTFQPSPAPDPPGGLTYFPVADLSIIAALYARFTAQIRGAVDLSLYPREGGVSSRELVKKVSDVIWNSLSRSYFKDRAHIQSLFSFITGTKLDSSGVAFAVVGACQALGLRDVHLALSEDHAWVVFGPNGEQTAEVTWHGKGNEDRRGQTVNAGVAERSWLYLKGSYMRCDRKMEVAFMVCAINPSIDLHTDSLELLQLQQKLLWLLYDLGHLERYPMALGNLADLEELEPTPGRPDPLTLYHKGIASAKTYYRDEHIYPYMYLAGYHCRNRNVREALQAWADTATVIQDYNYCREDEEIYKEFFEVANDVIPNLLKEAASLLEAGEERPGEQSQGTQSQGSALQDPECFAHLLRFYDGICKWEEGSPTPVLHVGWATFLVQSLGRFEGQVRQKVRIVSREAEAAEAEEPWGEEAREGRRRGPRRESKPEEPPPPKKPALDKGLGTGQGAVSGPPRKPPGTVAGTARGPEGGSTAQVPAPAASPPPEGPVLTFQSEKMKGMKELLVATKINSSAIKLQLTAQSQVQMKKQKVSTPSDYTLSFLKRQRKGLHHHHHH
- Test: Menin/MLL homogenous time-resolved fluorescence (HTRF) assay
- Condition Details: 30 min incubation
Entries and their pIC50
The scale used: pIC50 is minus the common logarithm of the concentration in molar units.

Please review the entries below; each comes with its answer.
Need pIC50, item CCN(C(=O)c1cc(F)ccc1-n1cc(C[C@@H]2CCN(CC3CCNC(=O)CC3)C2)c2c(C)cncc21)C(C)C (mixture of isomers) [Compound 254]
10.15

Another: Cc1cncc2c1c(C[C@H]1CCN(C(C)C3CCOCC3)C1)cn2-c1ccc(F)cc1C(=O)N(C)C(C)C (mixture of isomers) [Compound 49]
10.32

Another: CC(=O)N[C@H]1CC[C@H](CN2CC[C@H](Cc3cn(-c4ccc(F)cc4C(=O)N(C)C(C)C)c4cncc(C)c34)C2)CC1 (single isomer, unassigned) [Compound 73]
10.24

Another: COCCN(C)CCC[C@H](C(C)C)N1CC[C@H](Cc2cn(-c3ccc(F)cc3C(=O)N(C)C(C)C)c3cncc(C)c23)C1 (single isomer, unassigned) [Compound 2a]
10.62

Another: Cc1cncc2c1c(CC1CN(CC3CCOCC3)C1)cn2-c1ccc(F)cc1C(=O)N1C2COCC1C2 [Compound 263]
9.59

---
Need pIC50, item Cc1cncc2c1c(CC1CN(CC3CNCC(=O)C3)C1)cn2-c1ccc(F)cc1C(=O)N(C)C(C)C (stereo not drawn) [Compound 196]
9.72

Another: Cc1cncc2c1c(CC1CCN(CC3CCC(=O)N(C)CC3)C1)cn2-c1ccc(F)cc1C(=O)N(C)C(C)C (single isomer, unassigned) [Compound 184b]
10.19

Another: CC(=O)N1CCC(C(C)N2CCC(Cc3cn(-c4ccc(F)cc4C(=O)N(C)C(C)C)c4cncc(C)c34)C2)CC1 (single isomer, unassigned) [Compound 116a]
10.12

Another: Cc1cncc2c1c(CC1CN(CC3CCOCC3)C1)cn2-c1ccc(F)cc1[S@@](=N)(=O)C(C)C (single isomer, unassigned) [Compound 167b]
9.93

Another: Cc1cncc2c1c(CC1CCN(CC3CCN(C(=O)N(C)C)CC3)CC1)cn2-c1ccc(F)cc1C(=O)N(C)C(C)C [Compound 235]
10.01

Another: Cc1cncc2c1c(C[C@@H]1CCN(CC3CCOCC3)C1)cn2-c1ccc(F)cc1[S@@](=N)(=O)C(C)C (single isomer, unassigned) [Compound 78c]
9.42

Another: Cc1cncc2c1c(CC1CN(CC3CCOCC3)C1)cn2-c1ccc(F)cc1C(=O)N(C)[C@H]1C[C@@H](O)C1 [Compound 274]
8.62

Another: Cc1cncc2c1c(C[C@@H]1CCN([C@H](CN(C)C)C3CCOCC3)C1)cn2-c1ccc(F)cc1C(=O)N(C)C(C)C (single isomer, unassigned) [Compound 240b]
9.82

Another: CC(=O)N1CC([C@@H](C)N2CC[C@@H](Cc3cn(-c4ccc(F)cc4C(=O)N(C)C(C)C)c4cncc(C)c34)C2)C1 (single isomer, unassigned) [Compound 175]
8.88

Another: Cc1cncc2c1c(C[C@@H]1CCN(CC3CCN(C(=O)C4(O)CC4)CC3)C1)cn2-c1ccc(F)cc1C(=O)N(C)C(C)C [Compound 249]
10.64

Another: CC(=O)N1CCC(C)C(N2CC[C@@H](Cc3cn(-c4ccc(F)cc4C(=O)N(C)C(C)C)c4cncc(C)c34)C2)C1 (stereo partly drawn) [Compound 243]
10.01

Another: Cc1cncc2c1c(CC1CN(C[C@H]3CC[C@@H](C(=O)N(C)C)CC3)C1)cn2-c1ccc(F)cc1C(=O)N(C)C(C)C [Compound 221]
9.51

Another: Cc1cncc2c1c(CC1CN(CC3CCOCC3)C1)cn2-c1ccc(F)cc1C(=O)N1CCCC1CO (stereo not drawn) [Compound 268]
9.83

Another: CNC(=O)[C@H]1CC[C@H](CN2CCC(Cc3cn(-c4ccc(F)cc4C(=O)N(C)C(C)C)c4cncc(C)c34)C2)CC1 (single isomer, unassigned) [Compound 71]
9.69

Another: Cc1cncc2c1c(CC1CCNC1C)cn2-c1ccc(F)cc1C(=O)N(C)C(C)C (stereo not drawn) [Compound 509]
8.34

Another: Cc1cncc2c1c(CC1CN(CC3CCC(O)CC3)C1)cn2-c1ccc(F)cc1C(=O)N(C)C(C)C (stereo not drawn) [Compound 144]
10.14

Another: Cc1cncc2c1c(CC1CN(C[C@@H]3CCOC3)C1)cn2-c1ccc(F)cc1C(=O)N(C)C(C)C (single isomer, unassigned) [Compound 191b]
10.15

Another: CC(=O)N1CCC([C@@H](C)N2CC[C@@H](Cc3cn(-c4ccc(F)cc4[S@](=N)(=O)C(C)C)c4cncc(C)c34)C2)CC1 (single isomer, unassigned) [Compound 230a]
10.28

Another: Cc1cncc2c1c(CC1CN(C3CCCNC(=O)C3)C1)cn2-c1ccc(F)cc1C(=O)N(C)C(C)C (stereo not drawn) [Compound 290]
9.41
